Tested on: HLA-B40
experiment notes: REVEAL binding assay
experimental context: score as percentage of the signal generated by the positive control peptide
Where no end group is shown, it is not given here. [ ]: non-standard residue; d: D form. Cit = NC(=O)NCCC[C@H](N)C(=O)O
Field 'label' (enum: true (1) / false (0)). Set to true (1) when REVEAL binding score, HLA-type B40 is strictly under 30%; else false (0).

[[record]]
substance = "ADLMGYIPL"
label_value = "true (1)"

[[record]]
substance = "YLPAVGAPI"
label_value = "false (0)"

[[record]]
substance = "VGGVYLLPR"
label_value = "false (0)"

[[record]]
substance = "GNLPGCSFS"
label_value = "false (0)"

[[record]]
substance = "P[Cit]IGVRAT[Cit]"
label_value = "false (0)"


Strictly below 30% in REVEAL binding score, HLA-type B40? "GP[Cit]IGVRAT"
true (1)

----------
Item-by-item account of REVEAL binding score, HLA-type A1
System: HLA-A1
experiment notes: REVEAL binding assay
experimental context: score as percentage of the signal generated by the positive control peptide
The reply should be a number in %, with the unit left off.

[[record]]
construct_sequence = "NLGRVIETL"
quantity_kind = "REVEAL binding score, HLA-type A1"
val = 18.24


Indicate its recorded REVEAL binding score, HLA-type A1; the sequence in question is "RALAHGVRV"
20.77

Indicate its recorded REVEAL binding score, HLA-type A1; the sequence in question is "GRVIETLTS"
14.42

Indicate its recorded REVEAL binding score, HLA-type A1; the sequence in question is "VARALAHGV"
16.10

Indicate its recorded REVEAL binding score, HLA-type A1; the sequence in question is "TGNLPGCSF"
11.97

Indicate its recorded REVEAL binding score, HLA-type A1; the sequence in question is "RVIAHGLRL"
11.60

----------
experimental target: HLA-A11 (Homo sapiens, UniProt P04439, A114D/F33Y/S129P)
experiment notes: REVEAL binding assay
experimental context: score as percentage of the signal generated by the positive control peptide
Where no end group is shown, it is not given here. [ ]: non-standard residue; d: D form. Cit = NC(=O)NCCC[C@H](N)C(=O)O
Class assignment keyed on REVEAL binding score, HLA-type A11, ranges zone 1 (below 3%), zone 2 (3% to below 5%), zone 3 (5% or more)

[[record]]
substance = "VTGNIPGST"
experimental_target = "HLA-A11 (Homo sapiens, UniProt P04439, A114D/F33Y/S129P)"
label_value = "zone 2"

[[record]]
substance = "QIVGGVYLL"
experimental_target = "HLA-A11 (Homo sapiens, UniProt P04439, A114D/F33Y/S129P)"
label_value = "zone 1"

[[record]]
substance = "IGGNYLIPR"
experimental_target = "HLA-A11 (Homo sapiens, UniProt P04439, A114D/F33Y/S129P)"
label_value = "zone 2"

[[record]]
substance = "VARALAHGV"
experimental_target = "HLA-A11 (Homo sapiens, UniProt P04439, A114D/F33Y/S129P)"
label_value = "zone 2"

[[record]]
substance = "GQIVGGVYL"
experimental_target = "HLA-A11 (Homo sapiens, UniProt P04439, A114D/F33Y/S129P)"
label_value = "zone 2"


Which band does "P[Cit]IGVRAT[Cit]" fall in?
zone 1

Which band does "LMGYIPLVG" fall in?
zone 1

Which band does "TFSIYLIVS" fall in?
zone 1

Which band does "TGNIPGSTY" fall in?
zone 3

Which band does "LGKVIDTLT" fall in?
zone 3

Which band does "RVIETLTSG" fall in?
zone 2

----------
System: HLA-A29
experiment notes: REVEAL binding assay
experimental context: score as percentage of the signal generated by the positive control peptide
quantity kind: REVEAL binding score, HLA-type A29 (%)
The reply should be a number in %, with the unit left off.

Here are 5 sequences together with their reported answers.
[[record]]
construct_sequence = "NLPGCSFSI"
result_unit = "%"
val = 22.34

[[record]]
construct_sequence = "NIPGSTYSL"
result_unit = "%"
val = 31.99

[[record]]
construct_sequence = "RNLGKVIDT"
result_unit = "%"
val = 10.18

[[record]]
construct_sequence = "TFSIYLIVS"
result_unit = "%"
val = 8.58

[[record]]
construct_sequence = "GGQIVGGVY"
result_unit = "%"
val = 20.46


Indicate its recorded REVEAL binding score, HLA-type A29; the sequence in question is "RALAHGVRV"
29.73

Indicate its recorded REVEAL binding score, HLA-type A29; the sequence in question is "MGYIPLVGA"
19.54

Indicate its recorded REVEAL binding score, HLA-type A29; the sequence in question is "VGGVYLLPR"
14.20

Indicate its recorded REVEAL binding score, HLA-type A29; the sequence in question is "VIDTLTCGF"
13.90

Indicate its recorded REVEAL binding score, HLA-type A29; the sequence in question is "GRVIETLTS"
15.59

Indicate its recorded REVEAL binding score, HLA-type A29; the sequence in question is "NYATGNLPG"
34.26

Indicate its recorded REVEAL binding score, HLA-type A29; the sequence in question is "GQIVGGVYL"
13.73

Indicate its recorded REVEAL binding score, HLA-type A29; the sequence in question is "ADLMGYIPL"
14.51

Indicate its recorded REVEAL binding score, HLA-type A29; the sequence in question is "ITFSIYLIV"
24.10

Indicate its recorded REVEAL binding score, HLA-type A29; the sequence in question is "GPRLGVRAT"
12.66

----------
Item-by-item account of REVEAL binding score, HLA-type A2
experimental target: HLA-A2 (Homo sapiens, UniProt P04439, D140Y/D185E/D98H/E176V/E277Q/G131W/G231S/I119V/I121R/I166T/I218V/N151K/N90K/P208A/P217A/Q86G/Q94H/R138H/R169H)
experiment notes: REVEAL binding assay
experimental context: score as percentage of the signal generated by the positive control peptide
Where no end group is shown, it is not given here. [ ]: non-standard residue; d: D form. Cit = NC(=O)NCCC[C@H](N)C(=O)O; Nle = CCCC[C@H](N)C(=O)O
The reply should be a number in %, with the unit left off.

Here are 5 substances together with their reported answers.
[[record]]
substance = "DLMGYIPLV"
quantity_kind = "REVEAL binding score, HLA-type A2"
result_unit = "%"
val = 103.34

[[record]]
substance = "LPAVGAPIG"
quantity_kind = "REVEAL binding score, HLA-type A2"
result_unit = "%"
val = 5.60

[[record]]
substance = "GP[Cit]IGVRAT"
quantity_kind = "REVEAL binding score, HLA-type A2"
result_unit = "%"
val = 9.16

[[record]]
substance = "[Cit]IGVRAT[Cit]R"
quantity_kind = "REVEAL binding score, HLA-type A2"
result_unit = "%"
val = 8.17

[[record]]
substance = "PRLGVRATR"
quantity_kind = "REVEAL binding score, HLA-type A2"
result_unit = "%"
val = 6.85


Indicate its recorded REVEAL binding score, HLA-type A2; the substance in question is "RVIETLTSG"
9.82

Indicate its recorded REVEAL binding score, HLA-type A2; the substance in question is "RNLGKVIDT"
6.42

Indicate its recorded REVEAL binding score, HLA-type A2; the substance in question is "NLGRVIETL"
11.97

Indicate its recorded REVEAL binding score, HLA-type A2; the substance in question is "[Nle]GYIPLIGA"
10.43

Indicate its recorded REVEAL binding score, HLA-type A2; the substance in question is "GITFSIYLI"
7.27

Indicate its recorded REVEAL binding score, HLA-type A2; the substance in question is "LGRVIETLT"
5.90

Indicate its recorded REVEAL binding score, HLA-type A2; the substance in question is "IVGGVYLLP"
6.78

Indicate its recorded REVEAL binding score, HLA-type A2; the substance in question is "RVIAHGLRL"
18.68

Indicate its recorded REVEAL binding score, HLA-type A2; the substance in question is "VGGVYLLPR"
8.73

Indicate its recorded REVEAL binding score, HLA-type A2; the substance in question is "NIPGSTYSL"
5.71

Indicate its recorded REVEAL binding score, HLA-type A2; the substance in question is "YIPLVGAPL"
35.00

Indicate its recorded REVEAL binding score, HLA-type A2; the substance in question is "ITFSIYLIV"
43.08

Indicate its recorded REVEAL binding score, HLA-type A2; the substance in question is "GGQIIGGNY"
7.06

Indicate its recorded REVEAL binding score, HLA-type A2; the substance in question is "GNIPGSTYS"
5.07

Indicate its recorded REVEAL binding score, HLA-type A2; the substance in question is "VIRVIAHGL"
8.60

Indicate its recorded REVEAL binding score, HLA-type A2; the substance in question is "TGNIPGSTY"
3.59

Indicate its recorded REVEAL binding score, HLA-type A2; the substance in question is "GNLPGCSFS"
6.11

Indicate its recorded REVEAL binding score, HLA-type A2; the substance in question is "ARALAHGVR"
6.72

Reference source for all entries: patent US9550811B2
